SYSTEM: H3 receptors (Cavia porcellus)
Construct: The source of the H3 receptors in this experiment was guinea pig brain; from tissue; host or cells: guinea pig brain membranes
Sequence (Q9JI35 whole entry): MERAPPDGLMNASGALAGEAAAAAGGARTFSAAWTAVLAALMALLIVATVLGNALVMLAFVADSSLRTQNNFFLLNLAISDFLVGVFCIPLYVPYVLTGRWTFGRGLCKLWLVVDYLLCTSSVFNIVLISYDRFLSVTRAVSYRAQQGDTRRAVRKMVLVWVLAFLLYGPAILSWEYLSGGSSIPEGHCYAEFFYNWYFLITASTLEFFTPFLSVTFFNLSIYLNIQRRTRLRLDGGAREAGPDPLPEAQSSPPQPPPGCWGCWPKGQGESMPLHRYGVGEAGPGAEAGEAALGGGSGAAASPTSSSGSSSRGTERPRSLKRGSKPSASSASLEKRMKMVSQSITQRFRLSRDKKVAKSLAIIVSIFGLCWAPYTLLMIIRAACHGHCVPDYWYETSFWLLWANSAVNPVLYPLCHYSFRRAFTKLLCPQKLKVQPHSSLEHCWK
PROTOCOL_DESCRIPTION: H3-Receptor Binding Assay (guinea pig brain membranes, [3H]R-a-methylhistamine or [3H]Na-methylhistamine)
RECORDED_CONDITIONS: HCl salt of the indicated compound; guinea pig brain membranes; 3 nM [3H]R-a-methylhistamine or 3 nM [3H]Na-methylhistamine, pH 7.5, 30° C., 30 min; read-out: Ki
pKi: −log10 of the molar value.
pKi values, listed per item
MEASURED_PARAMETER: pKi

O=C(NCc1ccc(Cc2c[nH]cn2)cc1)Nc1cccc(Cl)c1 [Compound 9]: 8.22
O=C(NCc1ccc(Cc2c[nH]cn2)cc1)Nc1cc(Cl)cc(Cl)c1 [Compound 8]: 8.40
O=C(Nc1cc(Cl)cc(Cl)c1)OCc1ccc(Cc2c[nH]cn2)cc1 [Compound 20]: 8.30
